experiment: excess molar enthalpy (molar enthalpy of mixing); xn = mol fraction of the nth substance listed; conditions: 298.15 K; 101 kPa; Liquid; Flow calorimetry; x2 = 0.35
measured-parameter: excess molar enthalpy (kcal/mol)
Give bare numbers, in kcal/mol.

Quick request: excess molar enthalpy for each listed item, please.
1. O=C1CCCC1 [cyclopentanone] + C1CCOCC1
2. CCCC(C)=O [pentan-2-one] + C1CCOCC1
3. O=C1CCCCC1 [cyclohexanone] + C1CCOCC1
4. CCCCCC(C)=O [2-heptanone] + C1CCOCC1

Output:
[0.0331, 0.0182, 0.0176, 0.0106]

###

I'd be grateful if you could share measured excess molar enthalpy for these entries.
assay: excess molar enthalpy (molar enthalpy of mixing); xn = mol fraction of the nth substance listed; details: 298.15 K; 101 kPa; Liquid; Flow calorimetry; x2 = 0.8
Answers are plain numbers, in kcal/mol.

The cases that follow already have their excess molar enthalpy on record.
| compound | excess molar enthalpy / kcal/mol |
| --- | --- |
| CCCCCC(C)=O [2-heptanone] + C1CCOCC1 | 0.012 |
| O=C1CCCC1 [cyclopentanone] + C1CCOCC1 | 0.0267 |
| CCCC(C)=O [pentan-2-one] + C1CCOCC1 | 0.0174 |

Turning now to a further record.
Input: Look up excess molar enthalpy for this compound: O=C1CCCCC1 [cyclohexanone] + C1CCOCC1
Output: 0.0164

###

assay: excess molar enthalpy (molar enthalpy of mixing); xn = mol fraction of the nth substance listed; conditions: 298.15 K; 101 kPa; Liquid; Flow calorimetry; x2 = 0.1
measured-parameter: excess molar enthalpy (kcal/mol)
Answers are plain numbers, in kcal/mol.

| compound | excess molar enthalpy / kcal/mol |
| --- | --- |
| O=C1CCCC1 [cyclopentanone] + C1CCOCC1 | 0.0127 |
| CCCC(C)=O [pentan-2-one] + C1CCOCC1 | 0.00636 |
| O=C1CCCCC1 [cyclohexanone] + C1CCOCC1 | 0.00647 |

Input: Look up excess molar enthalpy for this compound: CCCCCC(C)=O [2-heptanone] + C1CCOCC1
Output: 0.00354

###

I'd be grateful if you could share measured excess molar enthalpy for these entries.
assay: excess molar enthalpy (molar enthalpy of mixing); xn = mol fraction of the nth substance listed; conditions: 298.15 K; 101 kPa; Liquid; Flow calorimetry; x2 = 0.3
Numbers only, in kcal/mol.

The cases that follow already have their excess molar enthalpy on record.
| compound | quantity-unit | excess molar enthalpy |
| --- | --- | --- |
| O=C1CCCCC1 [cyclohexanone] + C1CCOCC1 | kcal/mol | 0.016 |
| CCCCCC(C)=O [2-heptanone] + C1CCOCC1 | kcal/mol | 0.00946 |
| O=C1CCCC1 [cyclopentanone] + C1CCOCC1 | kcal/mol | 0.0304 |

Input: Look up excess molar enthalpy for this compound: CCCC(C)=O [pentan-2-one] + C1CCOCC1
Output: 0.0164

###

experiment: excess molar enthalpy (molar enthalpy of mixing); xn = mol fraction of the nth substance listed; settings: 298.15 K; 101 kPa; Liquid; Flow calorimetry; x2 = 0.55
measured-parameter: excess molar enthalpy (kcal/mol)
Give bare numbers, in kcal/mol.

The cases that follow already have their excess molar enthalpy on record.
| compound | quantity-unit | obs-value |
| --- | --- | --- |
| CCCC(C)=O [pentan-2-one] + C1CCOCC1 | kcal/mol | 0.0222 |
| O=C1CCCC1 [cyclopentanone] + C1CCOCC1 | kcal/mol | 0.0378 |
| CCCCCC(C)=O [2-heptanone] + C1CCOCC1 | kcal/mol | 0.0144 |

Turning now to a further record.
Input: Look up excess molar enthalpy for this compound: O=C1CCCCC1 [cyclohexanone] + C1CCOCC1
Output: 0.0214
